experiment: yeast display, Sf9 membrane polyspecificity reagent, FACS + sequencing; frameworks hold sequencing errors
quantity: polyreactivity (PSR sort gate)

I'd like to know its polyreactivity (PSR sort gate). The sequence in question is `QVQLVESGGGLVQAGGSLRLSSAASGRIFDDNAMGWYRQAPGKERELVAAITGPDDSTDYADSVKGRFTISRDNAKNTVYLQMNSLKPEDTAVYYCAKDAGYWYYWNGYWGQGTQVTVSS`
high polyreactivity

I'd like to know its polyreactivity (PSR sort gate). The sequence in question is `QVQLVESGGGLVQAGGSLRLSCAASGITFTSYAMGWYRQAPGKERELVAAISSSGGSTYYADSVKGRFTISRDNAKNTVYLQMNRLKPEDTAVFYCNARPRSRSPRVEYDYWGQGTQVNVSS`
high polyreactivity

====

test: yeast display, Sf9 membrane polyspecificity reagent, FACS + sequencing; frameworks hold sequencing errors
quantity: polyreactivity (PSR sort gate)

I'd like to know its polyreactivity (PSR sort gate). The sequence in question is `QVQLVESGGGLVQAGGSLRLSCAASGSTFYNYAMGWYRQAPGKEREFVAAITRSGGSTYYADSVKGRFSISRDNAKNTVYLQMNSLKPEDTAVYYCNAGGHWYYHRYRGYYWGQGTQVTVSS`
high polyreactivity

I'd like to know its polyreactivity (PSR sort gate). The sequence in question is `QVQLVASGGGLVQAGGSVRLSCAASGFIVNYYAMGWYRQAPGKEGELLAAISSGGSTYYADSVKGRFTISRDNAKNTVYLQMNSLKPEDTAVYYCAARYTDLRLARYYYDYYYWGQGTQVTVSS`
high polyreactivity

I'd like to know its polyreactivity (PSR sort gate). The sequence in question is `QVQLVESGGGLVQEGGSLRLSCAASGFTFPYYAMGWYRQAPGKERELVAAITSSGTITYYADSVKGRFTISRDNAKNTVYLQMNSLKPEDTAVYYCAARFSSTRYLQWYYYWGQGTQVTVSS`
high polyreactivity

I'd like to know its polyreactivity (PSR sort gate). The sequence in question is `QVQLVESGGGLVQAGGSLRLSCAASGFTFPLNAMGWYRQAPWKERELVAAITNGGTTYYADSVKGRFTISRDNAKNTVYLQMNSLKPEDTGVYYCAAYTYRYGSFKYGYWGQGTQVTVSS`
low polyreactivity

Please look at the following sequence next.
I'd like to know its polyreactivity (PSR sort gate). The sequence in question is `QVQLVESGGGLVQAGGSLRVSCAASGIIFGPYVMGWSRQAPGKERELVATISRTGDTYYADSVKGRFTISRDNAKNTVYLQMNSLKPEDTAVYYCNTQDHGYGFTMDYWGQGTQVTVSS`
low polyreactivity

====

test: yeast display, Sf9 membrane polyspecificity reagent, FACS + sequencing; frameworks hold sequencing errors
quantity: polyreactivity (PSR sort gate)

I'd like to know its polyreactivity (PSR sort gate). The sequence in question is `QVQLVESGGGLVQAGGSLRLSCAASGFIFDTYAMGWYRQAPGKERELVARINYSGGSTRYADSVKGRFTISRDNAKNTVYLQMNSLKPEDTAVYYCAAREFSYGFYYWGQGTQVTVSS`
high polyreactivity

I'd like to know its polyreactivity (PSR sort gate). The sequence in question is `QVQLVESGGGLVQAGGSLRLSCAASGNIFWGNAMGWYRQAPGKERELVAAITSIDSSTYYADSVKGRFTISRDNAKNTVYLQMNSLKPEDTAVYYCAADGDWYGYIWQSDDGYDSWGQGTQVTVSS`
low polyreactivity

I'd like to know its polyreactivity (PSR sort gate). The sequence in question is `QVQLVESGGGLVQAGGSLRLSCAASVSTFGGYAMGWYRQAPGKERELDAAITYSGGSTYYADSVKGRFTISRDNAKNTVYLQMNSLKPEDTAVYYCNADDDDALPWWWPYVLDVDYWGQGTQVTVSS`
low polyreactivity

I'd like to know its polyreactivity (PSR sort gate). The sequence in question is `QVQLVESGGGLVQAGGSLRLSCAASGSTFNKYTMGWYRQAPGKERELVAAITSGDSTYYADSVKGRFTISRDNAKNTVYLQMNSLKPEDTAVYYCAKSLRAYRHVIYGKPFYSWGQGTQVTVSS`
low polyreactivity

I'd like to know its polyreactivity (PSR sort gate). The sequence in question is `QVQLVESGGGLVQAGGSLRLSCAASGSTFGKYVMGWYRQAPGKERELVAAISRSGGSTYYADSVKGRFTISRDNAKNTVYFQMNSLKPEDTAVYYCATVGYGYDYWGQGTQVTVSS`
high polyreactivity

More entries:
I'd like to know its polyreactivity (PSR sort gate). The sequence in question is `QVQLVESGGGLVQAGGSLRLTCAASGSIFSYYAMGWYRQAPGKERELVADISFTGDSTFYADSVKGRFTISRDNAKNTVYLQMNSLKPEDTADYYCAKDEIMAVYFEYDYWGQGTQVTVSS`
low polyreactivity

I'd like to know its polyreactivity (PSR sort gate). The sequence in question is `QVQLVESSAGLVQAGGSLRLSCDASGSTFFYYAMGWYRQAPGKERELVAAISLSDGNTYYADSVKGRFTISRDNAKNTVYLQMNSLKPEDTAVYYCNRVGSQSMKYWGQGTQVTVSS`
low polyreactivity

====

assay: yeast display, Sf9 membrane polyspecificity reagent, FACS + sequencing; frameworks hold sequencing errors
quantity: polyreactivity (PSR sort gate)

I'd like to know its polyreactivity (PSR sort gate). The sequence in question is `QVQLVDSGGGLVQAGGSLSLSCAASGRTFARYTMGWSRQAPGKERELLAVISRSGGSTYYADSVKGRFTISRDNAKNSVYLKKNSLKQEDTAVYYCAAGYFVVTTLEYYFWGQGTQVTVSS`
high polyreactivity

I'd like to know its polyreactivity (PSR sort gate). The sequence in question is `QVHLVESGGGLVQAGGSLRLSCAASGSILPFNAMGWYRQAPGKDRELVAAIDGSGGDTYYADSVKGRFTISRDNAKNTVYLHMNSLKPEDTAVYYCAAEYYYTSQLAKYHYGYEYWGQGTQVTVSS`
high polyreactivity

====

experiment: yeast display, Sf9 membrane polyspecificity reagent, FACS + sequencing; frameworks hold sequencing errors
quantity: polyreactivity (PSR sort gate)

I'd like to know its polyreactivity (PSR sort gate). The sequence in question is `QVQLVESGGGLVQAGGSLRLSCAASGSISWYYAMGWYRQAPGKERELVAAISDSGGDTYYADSVKGRFTISRDNAKNTVYLQMNSLKPEDTAVYYCATDTAYWLWVYALLEYWGQGTQVTVSS`
low polyreactivity

I'd like to know its polyreactivity (PSR sort gate). The sequence in question is `QVQLVESGGGLVQAGGSLRLSCAASGRIFRRYAMGWYRQAPGKERELVASISSGGSTNYADSVKGRFTISRDNAKNTVYLQMNSLKPEDTAVYYCAAAYPWQTRYSSPYYYWGQGTQVTVSS`
high polyreactivity

I'd like to know its polyreactivity (PSR sort gate). The sequence in question is `QVQLVESGGGLVQAGGSLRLSCAASGLTLYYYAMGWYRQAPGKERELVAAINRGGSTYYSDSVKGRFTISRDNEKNTVYLLMNSLKPEDTAVYYCAVDYGVRDLTYYYCGQGTQVTVSS`
low polyreactivity

I'd like to know its polyreactivity (PSR sort gate). The sequence in question is `QVQLVESGGGLVQAGGSLRLSGAASGSTFRYYVMGWYRQAPGKERELVAGISYRGGTTYYADSVKGRFTISRDNAKNTVYLQMISLKPEDTAVYYCNAETAAAQASFDRLYVLLDYWGQGTQVTVSS`
low polyreactivity

I'd like to know its polyreactivity (PSR sort gate). The sequence in question is `QVQLVETGGGLVQAGGSLRLSCAASGSTFVYNAMGWYRPAPGNERELVAAITNSGSTYYADSVKGRFTISRDNAKNTVYLQMNSLKPEDTAVYDCAARSRVYWARSGYWGQGTQVTVSS`
low polyreactivity

More entries:
I'd like to know its polyreactivity (PSR sort gate). The sequence in question is `QVQLVESGGGLVQAGGSLRLSCAASGLIFYDNMGWYRQAPGKERELVAAISSSGGSTSYAYSVKGRFSISRDNAKYTVYLQMISLKREDTAVYYCAADSYRAYLGFVGFDYWGQGTQVTVSS`
low polyreactivity

I'd like to know its polyreactivity (PSR sort gate). The sequence in question is `QVQHVESGGGLVQAGGSLRLSCAASGTTFVLYAMGWYIQAPGKERELVAAITWSGGITYYADSVKGRFTISRDNAKNTVYLQMNSLKPEDTAVYYCNAEQKQYEKSYDYWGQGSQVTVSS`
low polyreactivity

I'd like to know its polyreactivity (PSR sort gate). The sequence in question is `QVQLVETRGGLVQAGGSLRLSCAASGPIIRYYDMGCYRQAPGTERELVSASNAAGTSTYYADSVKGRFTISRDNAKNTVYLQMNSLKPEDTAVYYCAAQPYYGGGCYCYTRNYKLNYWGQGTQVTVSS`
high polyreactivity

I'd like to know its polyreactivity (PSR sort gate). The sequence in question is `QVQLVESGGGLVQAGGSLRLSCAASGFIFDSYAMGWYRQAPGKERELVAAISWSGGRTYYADSVKGRFTISRDNAKNTVYLQMNSLKPEDTAVYYCNVRTKLSTSYDYWGQGTQVTVSS`
high polyreactivity

I'd like to know its polyreactivity (PSR sort gate). The sequence in question is `QVQLVESGGGLVQAGGSLRLSCAASGFIFTSYAMGWYRQAPGKERELVATISSSGGSTTYADSVKGRFTISRDNAKNTVYLQMNSLKPEDTAVYYCAAAVYVVRYVSLYRRYYWGQGTQVTVSS`
high polyreactivity

I'd like to know its polyreactivity (PSR sort gate). The sequence in question is `QVQLVESGGGLVQAGGSLRLSCAASGRTLGHNAMGWYRQAPGKERELVAAITSRGGTTYADSVKGRFTISRDNAKNTVYLQMNSLKPEDTAVYYCAARGYAYSRYYYWGQGTQVTVSS`
high polyreactivity
